Measured koff values are reported for all entries that follow.
Target: T1, SCREAM (SCRM), recombinant full-length protein (1-494) (A. thaliana, UniProt Q9LSE2 1-494)
T1 construct: SCRM (ICE1), A. thaliana, residues 1-494; called full-length in the results; The methods describe thrombin removal of GST for all recombinant proteins; For the BLI runs of SCRM with MUTE one partner must have kept GST (anti-GST probes); also called ICE1; source: E. coli BL21, purified (glutathione resin, thrombin digestion, Superdex-200); not shown: GST, N-terminal, cleaved
T1 sequence (looked up): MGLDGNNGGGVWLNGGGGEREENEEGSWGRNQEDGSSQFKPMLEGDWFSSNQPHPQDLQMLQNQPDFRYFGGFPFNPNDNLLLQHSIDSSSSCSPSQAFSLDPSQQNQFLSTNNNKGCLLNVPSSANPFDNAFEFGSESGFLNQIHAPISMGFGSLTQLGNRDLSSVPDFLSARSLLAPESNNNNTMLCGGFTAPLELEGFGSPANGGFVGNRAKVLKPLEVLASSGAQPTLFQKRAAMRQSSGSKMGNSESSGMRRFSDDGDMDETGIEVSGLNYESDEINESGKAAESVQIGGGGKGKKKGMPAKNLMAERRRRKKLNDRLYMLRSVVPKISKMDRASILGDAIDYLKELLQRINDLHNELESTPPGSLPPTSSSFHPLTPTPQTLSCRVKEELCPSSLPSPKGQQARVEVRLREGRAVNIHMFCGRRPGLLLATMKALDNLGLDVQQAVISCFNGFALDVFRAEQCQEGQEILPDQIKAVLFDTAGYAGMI
Test: BLI; SCRM with MUTE or MUTE mutants in the presence of Stomidazolone (3) (MUTE pre-incubated); Octet Red96, anti-GST probes loaded with 500 nM GST-tagged protein; 30 °C; 1x PBS, 2% DMSO, 0.02% Tween20; 1:1 model; KD (SS) from steady-state analysis
Details: both partners purified
Give a bare numeral; the unit s⁻¹ is implied.

// worked examples, koff included
- binder: "MUTE_R133A_R134A, recombinant (natural protein, A. thaliana, UniProt Q9M8K6 1-202, looked up, MUTE, A. thaliana, with R133A and R134A; source: E. coli BL21, purified (glutathione resin)) MSHIAVERNRRRQMNEHLKSLRSLTPCFYIKRGDQASIIGGVIEFIKELQQLVQVLESKKRRKTLNRPSFPYDHQTIEPSSLGAATTRVPFSRIENVMTTSTFKEVGACCNSPHANVEAKISGSNVVLRVVSAAIVGQLVKIISVLEKLSFQVLHLNISSMEETVLYFFVVKIGLECHLSLEELTLEVQKSFVSDEVIVSTN"
  unitsSymbol: "s⁻¹"
  koff: 0.000834
- binder: "MUTE_E162A_E163A, recombinant (natural protein, A. thaliana, UniProt Q9M8K6 1-202, looked up, MUTE, A. thaliana, with E162A and E163A; source: E. coli BL21, purified (glutathione resin)) MSHIAVERNRRRQMNEHLKSLRSLTPCFYIKRGDQASIIGGVIEFIKELQQLVQVLESKKRRKTLNRPSFPYDHQTIEPSSLGAATTRVPFSRIENVMTTSTFKEVGACCNSPHANVEAKISGSNVVLRVVSRRIVGQLVKIISVLEKLSFQVLHLNISSMAATVLYFFVVKIGLECHLSLEELTLEVQKSFVSDEVIVSTN"
  unitsSymbol: "s⁻¹"
  koff: 0.000634
- binder: "MUTE, recombinant full-length protein (1-202), as used in BLI with SCRM (natural protein, A. thaliana, UniProt Q9M8K6 1-202, looked up, BLI probes were anti-GST and loaded with 500 nM GST-tagged protein; source: E. coli BL21, purified (glutathione resin)) MSHIAVERNRRRQMNEHLKSLRSLTPCFYIKRGDQASIIGGVIEFIKELQQLVQVLESKKRRKTLNRPSFPYDHQTIEPSSLGAATTRVPFSRIENVMTTSTFKEVGACCNSPHANVEAKISGSNVVLRVVSRRIVGQLVKIISVLEKLSFQVLHLNISSMEETVLYFFVVKIGLECHLSLEELTLEVQKSFVSDEVIVSTN"
  unitsSymbol: "s⁻¹"
  koff: 0.00859

API: the following record is the query input.
Exercise: What value of measured koff is listed for MUTE_R133A_R134A_E162A_E163A, recombinant (natural protein, A. thaliana, UniProt Q9M8K6 1-202, looked up, MUTE, A. thaliana, with R133A, R134A, E162A and E163A; source: E. coli BL21, purified (glutathione resin)) MSHIAVERNRRRQMNEHLKSLRSLTPCFYIKRGDQASIIGGVIEFIKELQQLVQVLESKKRRKTLNRPSFPYDHQTIEPSSLGAATTRVPFSRIENVMTTSTFKEVGACCNSPHANVEAKISGSNVVLRVVSAAIVGQLVKIISVLEKLSFQVLHLNISSMAATVLYFFVVKIGLECHLSLEELTLEVQKSFVSDEVIVSTN ?
Solution: 0.000336
